PARTICULARS: bacteroides stercoris, 12 h, 2 µM
Description: The drug is tested on Bacteroides stercoris strain: ATCC43183 for biotransformation. The drug concentrations were measured before and after a 12-h incubation by liquid-chromatography-coupled mass spectrometry (LC–MS)
EXPERIMENTAL_READOUT: Bacterial Biotransformation

Reference set, count: 4
{"MOLECULE": "CCN(CC)CCOCCOC(=O)C1(c2ccccc2)CCCC1.O=C(O)CC(O)(CC(=O)O)C(=O)O [CARBETAPENTANE CITRATE]", "Bacterial Biotransformation": "Compound metabolized"}
{"MOLECULE": "O=c1[nH]c2ccccc2n1CCCN1CCC(n2c(=O)[nH]c3cc(Cl)ccc32)CC1", "Bacterial Biotransformation": "Compound NOT metabolized"}
{"MOLECULE": "COc1cc2nc(N3CCN(C(=O)C4CCCO4)CC3)nc(N)c2cc1OC (stereo unspecified)", "Bacterial Biotransformation": "Compound NOT metabolized"}
{"MOLECULE": "C[C@@H]1CC[C@H]2[C@@H](C)C(=O)O[C@@H]3O[C@@]4(C)CC[C@@H]1[C@]32OO4", "Bacterial Biotransformation": "Compound metabolized"}

So what's the measured Bacterial Biotransformation for this one? C[N+]12CCC(CC1)C(OC(=O)C(O)(c1ccccc1)c1ccccc1)C2.[Br-] (stereo unspecified) [CLIDINIUM BROMIDE]
Compound NOT metabolized

Could you share which Bacterial Biotransformation value was measured for Br.CN1CCC[C@@H]1Cc1c[nH]c2ccc(CCS(=O)(=O)c3ccccc3)cc12 [ELETRIPTAN HYDROBROMIDE] ?
Compound NOT metabolized

Could you share which Bacterial Biotransformation value was measured for CC(=O)OCC(=O)NCCCOc1cccc(CN2CCCCC2)c1 [ROXATIDINE ACETATE] ?
Compound metabolized

Which Bacterial Biotransformation reading was recorded for the molecule CCOC(=O)C1=C(C)NC(C)=C(C(=O)OC)C1c1cccc([N+](=O)[O-])c1 (stereo unspecified) ?
Compound metabolized

I have this molecule here, `CO[C@]12C[C@@H](COC(=O)c3cncc(Br)c3)CN(C)[C@@H]1Cc1cn(C)c3cccc2c13` , and I need its recorded Bacterial Biotransformation.
Compound NOT metabolized

---

ASSAY_METHOD_TEXT: The drug is tested on Providencia stuartii strain: ATCC25827 for biotransformation. The drug concentrations were measured before and after a 12-h incubation by liquid-chromatography-coupled mass spectrometry (LC–MS)
PARTICULARS: 2 µM
EXPERIMENTAL_READOUT: Bacterial Biotransformation

Below, 5 compounds whose answers are already recorded.
{"COMPOUND": "OC(CCN1CCCCC1)(c1ccccc1)C1CCCCC1 (stereo not given) [TRIHEXYPHENIDYL]", "RESULT": "Compound NOT metabolized"}
{"COMPOUND": "CN(C)C(=O)Oc1cc(OC(=O)N(C)C)cc(C(O)CNC(C)(C)C)c1 (stereo not given) [BAMBUTEROL]", "RESULT": "Compound NOT metabolized"}
{"COMPOUND": "COc1ccccc1OCCNCC(O)COc1cccc2[nH]c3ccccc3c12 (stereo not given) [CARVEDILOL]", "RESULT": "Compound metabolized"}
{"COMPOUND": "CC(=O)Oc1ccc(C(c2ccc(OC(C)=O)cc2)c2ccccn2)cc1 [BISACODYL]", "RESULT": "Compound metabolized"}
{"COMPOUND": "CC(C)(C)NC[C@H](O)COc1ccccc1C1CCCC1.CC(C)(C)NC[C@H](O)COc1ccccc1C1CCCC1.O=S(=O)(O)O [PENBUTOLOL SULFATE]", "RESULT": "Compound NOT metabolized"}

Now turn to the next compound.
Returns the measured Bacterial Biotransformation for the input compound. Input: C=CCN1CC[C@]23c4c5ccc(O)c4O[C@H]2C(=O)CC[C@@]3(O)[C@H]1C5 [NALOXONE]
Compound NOT metabolized

---

ASSAY_METHOD_TEXT: The drug is tested on Anaerococcus hydrogenalis strain: DSM7454 for biotransformation. The drug concentrations were measured before and after a 12-h incubation by liquid-chromatography-coupled mass spectrometry (LC–MS)
PARTICULARS: 2 µM

{"COMPOUND": "OC(CCN1CCCCC1)(c1ccccc1)C1CCCCC1 (centres undefined)", "Bacterial Biotransformation": "Compound NOT metabolized"}
{"COMPOUND": "COCCc1ccc(OCC(O)CNC(C)C)cc1.COCCc1ccc(OCC(O)CNC(C)C)cc1.O=C(O)C(O)C(O)C(=O)O (centres undefined) [METOPROLOL TARTRATE]", "Bacterial Biotransformation": "Compound NOT metabolized"}
{"COMPOUND": "CC(C)NCC(O)COc1ccc(CCOCC2CC2)cc1 (centres undefined)", "Bacterial Biotransformation": "Compound NOT metabolized"}

---

PARTICULARS: bacteroides thetaiotaomicron, 12 h, 2 µM
Description: The drug is tested on Bacteroides thetaiotaomicron strain: 7330 for biotransformation. The drug concentrations were measured before and after a 12-h incubation by liquid-chromatography-coupled mass spectrometry (LC–MS)
EXPERIMENTAL_READOUT: Bacterial Biotransformation

Solved cases below.
{"COMPOUND": "CC(C(=O)O)c1ccc2c(c1)Cc1cccnc1O2 (centres undefined) [PRANOPROFEN]", "EXPERIMENTAL_READOUT": "Bacterial Biotransformation", "RESULT": "Compound metabolized"}
{"COMPOUND": "CC(=O)O[C@H]1C(=O)[C@@]2(C)[C@H]([C@H](OC(=O)c3ccccc3)[C@]3(O)C[C@H](OC(=O)[C@H](O)[C@@H](NC(=O)c4ccccc4)c4ccccc4)C(C)=C1C3(C)C)[C@]1(OC(C)=O)CO[C@@H]1C[C@@H]2O [PACLITAXEL]", "EXPERIMENTAL_READOUT": "Bacterial Biotransformation", "RESULT": "Compound NOT metabolized"}
{"COMPOUND": "O=c1[nH]c2ccccc2n1C1CCN(CCCC(c2ccc(F)cc2)c2ccc(F)cc2)CC1 [PIMOZIDE]", "EXPERIMENTAL_READOUT": "Bacterial Biotransformation", "RESULT": "Compound NOT metabolized"}
{"COMPOUND": "Cc1ccccc1N1C(=O)c2cc(S(N)(=O)=O)c(Cl)cc2NC1C (centres undefined) [METOLAZONE]", "EXPERIMENTAL_READOUT": "Bacterial Biotransformation", "RESULT": "Compound NOT metabolized"}

Look at this compound and give its reported Bacterial Biotransformation. c1ccc([C@H]2CN3CCSC3=N2)cc1 [LEVAMISOLE]
Compound metabolized

Any idea what Bacterial Biotransformation was measured for O=C1C(CC[S+]([O-])c2ccccc2)C(=O)N(c2ccccc2)N1c1ccccc1 (centres undefined) [SULFINPYRAZONE] ?
Compound NOT metabolized

For the compound shown here, C[C@@H]1CC[C@H]2[C@@H](C)C(=O)O[C@@H]3O[C@@]4(C)CC[C@@H]1[C@]32OO4 [ARTEMISININ] , give the reported Bacterial Biotransformation.
Compound metabolized

What value of Bacterial Biotransformation has been reported for the following compound? COc1cc(C(=O)NCc2ccc(OCCN(C)C)cc2)cc(OC)c1OC [TRIMETHOBENZAMIDE]
Compound NOT metabolized

Item CN1CCOC(c2ccccc2)c2ccccc2C1 (centres undefined) [NEFOPAM] has what recorded Bacterial Biotransformation?
Compound NOT metabolized

---

PARTICULARS: bacteroides intestinalis, 12 h, 2 µM
EXPERIMENTAL_READOUT: Bacterial Biotransformation

{"MOLECULE": "COc1ccc(CCN(C)CCCC(C#N)(c2ccc(OC)c(OC)c2)C(C)C)cc1OC (configuration not stated)", "EXPERIMENTAL_READOUT": "Bacterial Biotransformation", "RESULT": "Compound metabolized"}
{"MOLECULE": "CC(C)(C#N)c1cc(Cn2cncn2)cc(C(C)(C)C#N)c1", "EXPERIMENTAL_READOUT": "Bacterial Biotransformation", "RESULT": "Compound NOT metabolized"}
{"MOLECULE": "Cc1ccccc1N1C(=O)c2cc(S(N)(=O)=O)c(Cl)cc2NC1C (configuration not stated)", "EXPERIMENTAL_READOUT": "Bacterial Biotransformation", "RESULT": "Compound NOT metabolized"}
{"MOLECULE": "C[C@]12CCC(=O)C=C1[C@@H]1C[C@@H]1[C@H]1[C@@H]3[C@@H]4C[C@@H]4[C@@]4(CCC(=O)O4)[C@@]3(C)CC[C@@H]12", "EXPERIMENTAL_READOUT": "Bacterial Biotransformation", "RESULT": "Compound NOT metabolized"}
{"MOLECULE": "CC[C@H](C)C(=O)O[C@H]1C[C@@H](C)C=C2C=C[C@H](C)[C@H](CC[C@@H]3C[C@@H](O)CC(=O)O3)[C@H]21", "EXPERIMENTAL_READOUT": "Bacterial Biotransformation", "RESULT": "Compound metabolized"}

Look up Bacterial Biotransformation: COc1c(C)c2c(c(O)c1C/C=C(\C)CCC(=O)OCCN1CCOCC1)C(=O)OC2 [MYCOPHENOLATE MOFETIL]
Compound metabolized

Record request: Bacterial Biotransformation value, item CCN(CC)CCOC(=O)C(Cc1cccc2ccccc12)CC1CCCO1.O=C(O)C(=O)O (configuration not stated) [NAFRONYL OXALATE]
Compound NOT metabolized

Origin of values: ChEMBL document CHEMBL5303573
